Measured peptide exchange yield, listed per entry for reference.
# SYSTEM NAME: T1, HLA-A*02:01 (peptide-receptive MHC class I molecule after UV-ligand exchange) (human)
# T1 construct: monomers captured on streptavidin-coated plates; also called peptide-receptive MHC molecules; MHC monomers
# MEASUREMENT DESCRIPTION: UV-ligand exchange, anti-b2m ELISA; peptide exchange yield grade (>10% = +; >20% = ++; >50 = +++; >75% = ++++)
No end group written: not given here.
MEASUREMENT LABEL: peptide exchange yield

INSERT INTO assay_data (binder, value_observed) VALUES
  ('AVMTDLPVI [peptide AVMTDLPVI (SEQ ID NO: 16)]', '> 75%'),
  ('VLQDELPQL [peptide VLQDELPQL (SEQ ID NO: 20)]', '> 75%'),
  ('EMDSTVITV [peptide EMDSTVITV (SEQ ID NO: 3)]', '50 to 75%'),
  ('YVISQVFEI [peptide YVISQVFEI (SEQ ID NO: 32)]', '> 75%'),
  ('ALAEQVQKA [peptide ALAEQVQKA (SEQ ID NO: 27)]', '50 to 75%'),
  ('FASGLIHRV [peptide FASGLIHRV (SEQ ID NO: 30)]', '50 to 75%'),
  ('SAFGFPVIL [peptide SAFGFPVIL (SEQ ID NO: 22)]', '20 to 50%'),
  ('VLPRAFTYV [peptide VLPRAFTYV (SEQ ID NO: 13)]', '> 75%'),
  ('SLSPDLSQV [peptide SLSPDLSQV (SEQ ID NO: 18)]', '50 to 75%'),
  ('TILPGNLQSW [peptide TILPGNLQSW (SEQ ID NO: 12)]', '10 to 20%'),
  ('LLLPLLPPLSPS (also: trifluoroacetate salt) [peptide LLLPLLPPLSPS (SEQ ID NO: 6)]', '> 75%'),
  ('YGIEFVVGV [peptide YGIEFVVGV (SEQ ID NO: 14)]', '> 75%'),
  ('SIIDFTVTM [peptide SIIDFTVTM (SEQ ID NO: 11)]', '> 75%'),
  ('ISAPLVKTL [peptide ISAPLVKTL (SEQ ID NO: 24)]', '10 to 20%'),
  ('IAFPTSISV [peptide IAFPTSISV (SEQ ID NO: 21)]', '50 to 75%'),
  ('NLSETASTMAL [peptide NLSETASTMAL (SEQ ID NO: 25)]', '> 75%'),
  ('TAQTLVRIL [peptide TAQTLVRIL (SEQ ID NO: 26)]', '10 to 20%'),
  ('LLLSDPDKVTI [peptide LLLSDPDKVTI (SEQ ID NO: 7)]', '> 75%');
